B1: glmS ribozyme (parent)
chain: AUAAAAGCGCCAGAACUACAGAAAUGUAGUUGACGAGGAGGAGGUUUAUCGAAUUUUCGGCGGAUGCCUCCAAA

variants of: B1; assay: self-cleavage kobs at 160 uM GlcN6P; higher = faster cleavage; RNA array; details: with glucosamine-6-phosphate
Fewer inactive variants are shown than the library holds.
Give measured self-cleavage kobs at 160 uM GlcN6P for each item. Keep answers brief.

# count of solved cases: 5
Form field self-cleavage kobs at 160 uM GlcN6P, entry A6U G44U U55C : < 1e-05 s⁻¹

For record A42C U49A the listed self-cleavage kobs at 160 uM GlcN6P is < 1e-05 s⁻¹

The variant listed as A6G U30G C34G shows self-cleavage kobs at 160 uM GlcN6P equal to < 1e-05 s⁻¹

self-cleavage kobs at 160 uM GlcN6P reading for U45A C71U : 0.00507 s⁻¹

Record summary for A6C C16A : reported self-cleavage kobs at 160 uM GlcN6P = < 1e-05 s⁻¹

Field: self-cleavage kobs at 160 uM GlcN6P. Fill in for each record below.
1. G37A A64G
2. C8G C61A
3. G9A C11G
4. A14U U65G
5. A42G A52U C70A
6. C11A C34G

1. 5.16e-05 s⁻¹
2. < 1e-05 s⁻¹
3. < 1e-05 s⁻¹
4. 0.000118 s⁻¹
5. < 1e-05 s⁻¹
6. < 1e-05 s⁻¹
